// data source = patent US20240076389A1

Biological target: T1, AXL fragment # 6 (AXL amino acids 26-226, IgL1+IgL2)
T1 chain: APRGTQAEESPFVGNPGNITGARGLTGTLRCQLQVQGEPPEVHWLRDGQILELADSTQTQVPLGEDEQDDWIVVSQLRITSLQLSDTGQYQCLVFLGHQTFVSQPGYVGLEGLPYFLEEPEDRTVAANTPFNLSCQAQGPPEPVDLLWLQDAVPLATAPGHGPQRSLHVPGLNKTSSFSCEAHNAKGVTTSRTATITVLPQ
Assay: yeast surface display of hAXL fragments (Aga2-HA-(hAXL)-MYC), whole yeast cell ELISA, signal normalised to anti-MYC
Excerpt: Epitope mapping. […] The YSD vector (pPNL6) was from The Pacific Northwest National Laboratory, USA.

{"binder": "F111-3C8 (antibody, V domains shown, also called F111-3C8-2) VH: QVQLQQPGAELGKPGTSVKLSCKASGYTFTSYWMHWVKRVPGQGLEWIGNINPNSTSADYNEKFKRKATLTVDKSSSTAYMQLSTLTSEDSAVYYCTRPLMGPYWYFDVWGTGTTVTVSS VL: QIVLTQSPAIMSASPGEKVTISCSASSSVSYMYWYQQKPGSSPKPWIYRTSNLASGVPARFSGSGSGTSYSLTISSMEAEDAATYYCQQYHNYPPTFGGGTKLEIK", "binding result": "binds"}
